Target: RSV F protein of subtype B strain 18537, on virus (respiratory syncytial virus subtype B …, UniProt P13843 26-574)
Sequence (P13843 26-574): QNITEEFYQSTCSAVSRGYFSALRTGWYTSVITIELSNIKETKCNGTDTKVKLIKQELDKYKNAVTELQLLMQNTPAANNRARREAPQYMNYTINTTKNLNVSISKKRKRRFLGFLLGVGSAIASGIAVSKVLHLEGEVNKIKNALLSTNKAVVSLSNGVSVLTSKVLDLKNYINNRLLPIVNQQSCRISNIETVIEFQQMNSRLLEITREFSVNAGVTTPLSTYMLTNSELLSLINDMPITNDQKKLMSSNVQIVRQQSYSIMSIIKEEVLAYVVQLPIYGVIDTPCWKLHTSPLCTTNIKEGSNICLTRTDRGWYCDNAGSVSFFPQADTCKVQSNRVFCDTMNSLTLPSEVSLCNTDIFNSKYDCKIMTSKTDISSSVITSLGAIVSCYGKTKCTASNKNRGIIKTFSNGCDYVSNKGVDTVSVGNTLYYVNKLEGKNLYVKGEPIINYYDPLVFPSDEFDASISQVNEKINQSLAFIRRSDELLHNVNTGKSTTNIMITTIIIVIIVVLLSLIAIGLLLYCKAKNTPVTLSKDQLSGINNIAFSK
Assay: cell-based or functional assay
property: Neut IC50 (ug/ml) subtype B (µg/mL)
Express your answer in µg/mL, writing the number without its unit.

Consider the worked cases shown below.
{"binder": "ADI-15582 (antibody, V domains shown, IgG) VH: QVQLVQSGGEVKKPGASVKVSCKASGYTFISYGITWVRQAPGQGPEWMGWISPYNGDTNYAQKLQGRVTMTTDTSTTTAYMELRSLRSDDTAIYYCARRYDILTGGGWFDSWGQGTLVTVSS VL: DIVMTQSPSSLSASVGDRVTINCRASQSIISYLNWYQQKPGKAPELLIYAASSLQSGVPSRFSGSGSGTEFTLTISSLQPEDFATYYCQQSYSTPLSFGPGTKVEIK", "property": "Neut IC50 (ug/ml) subtype B", "measurement": 6.74}
{"binder": "ADI-15575 (antibody, V domains shown, IgG) VH: QVQLVQSGAEVKKPGASLMVSCSASGYIFNSDINWVRQAPGQGLEWMGWMNPKNGHTGYAQEFEGRVSMTRNSSKTIAYLQLSSLTYEDTAVYYCVYDFWSDDSVKWGRGTLVTVSS VL: QSVVTQPPSVSGAPGQSVAISCSGSSSNIGPGYDVHWYQQLPGSAPKLLIYGDNNRPSGVPERFSTSKSGTSASLAITGLQAEDEADYYCQSFDSSLRGYVFGTGTKVTVL", "property": "Neut IC50 (ug/ml) subtype B", "measurement": 1.47}

Switching to the query record.
Incoming: If you can, please state the reported Neut IC50 (ug/ml) subtype B value of ADI-15625 (antibody, V domains shown, IgG; also called Antibody Number 190) VH: EVQLVESGAEVRKPGASVQVSCKASGYTFTSYYMHWVRQAPGHGLEWMGMIYPSGGSTSYAQKFQGRVTMTRDTSTSTVYMELSSLRSEDAAVYYCARDRAGCSGGSCYYYGMDVWGQGTTVTVSS VL: NFMLTQPPSVSVSPGQTASITCSGNKLGDKYACWYQQKPGQSPVLVISQDSKRPSGIPERFSGSNSGNTATLTISGTQAMDEADYYCQAWDSRTVVFGGGTKLTVL .
Outgoing: 1.2
